# Test system: SK-PN-DW (Other Solid Carcinomas);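 further: after 72 h of two-drug dosing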
# assay name: Bliss excess, mean over the matrix (fraction); higher = more synergy
Recorded Bliss excess by entry

See these solved cases before continuing.
| compound | Bliss excess |
| --- | --- |
| O=C(c1cc(Cc2n[nH]c(=O)c3ccccc23)ccc1F)N1CCN(C(=O)C2CC2)CC1 [Olaparib] + CC1(C)CCC(CN2CCN(c3ccc(C(=O)NS(=O)(=O)c4ccc(NCC5CCOCC5)c([N+](=O)[O-])c4)c(Oc4cnc5[nH]ccc5c4)c3)CC2)=C(c2ccc(Cl)cc2)C1 [Venetoclax] (first compound max 10 µM, 7x7, partner max 1 µM) | 0.0049 |
| CC1(C)CCC(CN2CCN(c3ccc(C(=O)NS(=O)(=O)c4ccc(NCC5CCOCC5)c([N+](=O)[O-])c4)c(Oc4cnc5[nH]ccc5c4)c3)CC2)=C(c2ccc(Cl)cc2)C1 [Venetoclax] + Cn1cnc2c(F)c(Nc3ccc(Br)cc3Cl)c(C(=O)NOCCO)cc21 [Selumetinib] (first compound max 1 µM, 7x7, partner max 3 µM) | -0.0308 |
| CC1(C)CCC(CN2CCN(c3ccc(C(=O)NS(=O)(=O)c4ccc(NCC5CCOCC5)c([N+](=O)[O-])c4)c(Oc4cnc5[nH]ccc5c4)c3)CC2)=C(c2ccc(Cl)cc2)C1 [Venetoclax] + COc1cc(Nc2ncc3c(n2)-c2ccc(Cl)cc2C(c2c(F)cccc2OC)=NC3)ccc1C(=O)O [Alisertib] (first compound max 1 µM, 7x7, partner max 10 µM) | -0.127 |
| COc1nnc2ccc(N3CCC(c4ccc(OCCN5CCN(C)C(=O)[C@H]5C)cc4)CC3)nn12 [AZD5153] + C[C@@H]1COCCN1C2=NC(=NC(=C2)C3(CC3)[S@](=N)(=O)C)C4=C5C=CNC5=NC=C4 [AZD6738] (first compound max 1 µM, 7x7, partner max 10 µM) | -0.0638 |
| CC1(C)CCC(CN2CCN(c3ccc(C(=O)NS(=O)(=O)c4ccc(NCC5CCOCC5)c([N+](=O)[O-])c4)c(Oc4cnc5[nH]ccc5c4)c3)CC2)=C(c2ccc(Cl)cc2)C1 [Venetoclax] + CCN(CCO)CCCOc1ccc2c(Nc3cc(CC(=O)Nc4cccc(F)c4)[nH]n3)ncnc2c1 [AZD2811] (first compound max 1 µM, 7x7, partner max 1 µM) | -0.0703 |

Proceed to the following item.
Looking up C=CCn1c(=O)c2cnc(Nc3ccc(N4CCN(C)CC4)cc3)nc2n1-c1cccc(C(C)(C)O)n1 [AZD1775] + O=C(c1cc(Cc2n[nH]c(=O)c3ccccc23)ccc1F)N1CCN(C(=O)C2CC2)CC1 [Olaparib] (first compound max 1 µM, partner max 10 µM) , I see its Bliss excess listed as -0.0694

meta.source: the supplement of paper PMC11061612
